# MEASUREMENT_TARGET: human IgG
# TEST_SUMMARY: Surface plasmon resonance (SPR) analysis of synthetic peptide binding to human IgG
# EXPERIMENTAL_PARAMETERS: SPR, synthetic peptide binding to human IgG; read-out: Kd
Bridge positions count the residues as written; N and C are the ends. Peptide text beside a SMILES is read from it.
Label 1 when Kd is strictly below 60 µM; otherwise label 0.

Recorded results for 3 molecules are shown here.
>>> class_assignment("CSCC[C@@H]1NC(=O)[C@H](CC(N)=O)NC(=O)CNC(=O)[C@H](CC(N)=O)NC(=O)[C@H]([C@@H](C)O)NC(=O)[C@H](Cc2ccc(O)cc2)NC(=O)[C@H]([C@@H](C)O)NC(=O)[C@@H](NC(=O)[C@@H](N)CC(=O)O)CSSC[C@@H](C(=O)N[C@H](C(N)=O)[C@@H](C)O)NC(=O)[C@H](Cc2c[nH]c3ccccc23)NC(=O)[C@H](C(C)C)NC1=O [GFc-C35-3/15 (L11M), DCTYTNGNMVWCT] (H-DCTYTNGNMVWCT-NH2; disulfide 2-12)")
0
>>> class_assignment("CC(C)C[C@@H]1NC(=O)[C@H](CCC(=O)O)NC(=O)CNC(=O)[C@H](CCCNC(=N)N)NC(=O)[C@H](Cc2c[nH]cn2)NC(=O)[C@H](Cc2ccc(O)cc2)NC(=O)[C@H](C)NC(=O)[C@@H](NC(=O)[C@H](CC(=O)O)NC(=O)[C@@H]2CCCN2C(=O)CN)CSSC[C@@H](C(=O)N[C@@H](CO)C(=O)N[C@@H](Cc2ccccc2)C(=O)N[C@@H](Cc2c[nH]cn2)C(N)=O)NC(=O)[C@H](Cc2c[nH]c3ccccc23)NC(=O)[C@H](C(C)C)NC1=O [C35A (T15S), GPDCAYHRGELVWCSFH] (H-GPDCAYHRGELVWCSFH-NH2; disulfide 4-14)")
1
>>> class_assignment("CC(C)C[C@@H]1NC(=O)[C@H](CCC(=O)O)NC(=O)CNC(=O)[C@H](CCCNC(=N)N)NC(=O)[C@H](Cc2c[nH]cn2)NC(=O)[C@H](Cc2ccc(O)cc2)NC(=O)[C@H](C)NC(=O)[C@@H](NC(=O)[C@H](CO)NC(=O)[C@@H]2CCCN2C(=O)CN)CSSC[C@@H](C(=O)N[C@H](C(=O)N[C@@H](Cc2ccccc2)C(=O)N[C@@H](Cc2c[nH]cn2)C(N)=O)[C@@H](C)O)NC(=O)[C@H](Cc2c[nH]c3ccccc23)NC(=O)[C@H](C(C)C)NC1=O [C35A (D3S), GPSCAYHRGELVWCTFH] (H-GPSCAYHRGELVWCTFH-NH2; disulfide 4-14)")
1

Proceed to the following item.
Please state whether Kd is below 60 µM for CC(C)C[C@@H]1NC(=O)[C@H](CC(N)=O)NC(=O)CNC(=O)[C@H](CC(N)=O)NC(=O)[C@H]([C@@H](C)O)NC(=O)[C@H](Cc2ccc(O)cc2)NC(=O)[C@H]([C@@H](C)O)NC(=O)[C@@H](NC(=O)[C@@H](N)CC(=O)O)CSSC[C@@H](C(=O)N[C@H](C(N)=O)[C@@H](C)O)NC(=O)[C@H](Cc2c[nH]c3ccccc23)NC(=O)[C@H](C(C)C)NC1=O [GFc-C35-3/15, DCTYTNGNLVWCT] (H-DCTYTNGNLVWCT-NH2; disulfide 2-12)
0
